target: T1, human LAP-TGFB1 Fc fusion (human); experiment: SPR pH 6.0, antigen-Fc captured, Fab analyte
T1 construct: also called human LAP-TGFβ1-Fc; human LAP-TGFβ-Fc isoform 1
T1 sequence (chain, as listed by the source limits assumed): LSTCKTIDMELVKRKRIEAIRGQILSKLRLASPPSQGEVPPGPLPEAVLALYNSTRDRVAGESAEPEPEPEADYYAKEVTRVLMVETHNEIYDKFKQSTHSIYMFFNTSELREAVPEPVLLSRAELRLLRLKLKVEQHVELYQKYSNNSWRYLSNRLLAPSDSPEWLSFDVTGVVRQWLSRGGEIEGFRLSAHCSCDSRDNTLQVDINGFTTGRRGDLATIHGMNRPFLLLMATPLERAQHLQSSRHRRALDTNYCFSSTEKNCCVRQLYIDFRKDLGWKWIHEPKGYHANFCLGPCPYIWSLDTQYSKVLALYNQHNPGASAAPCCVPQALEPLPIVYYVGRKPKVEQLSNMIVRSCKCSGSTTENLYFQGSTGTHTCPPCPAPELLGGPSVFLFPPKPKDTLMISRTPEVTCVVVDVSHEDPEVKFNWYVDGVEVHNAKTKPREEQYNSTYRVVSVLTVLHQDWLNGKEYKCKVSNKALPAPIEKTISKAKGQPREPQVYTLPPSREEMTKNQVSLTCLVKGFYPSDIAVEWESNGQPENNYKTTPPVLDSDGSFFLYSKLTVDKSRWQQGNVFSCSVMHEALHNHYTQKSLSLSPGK
METRIC_NAME: pKd
Entry type: numeric. Quantity: pKd, the -log10 of concentration in molar units.

Known pKd results, listed for orientation:
BINDER | pKd
20E6 Fab (80BGJ/85BIT) (Fab, V domains shown, also called 20E6 (80BGJ); 20E6 (85BIT)) VH: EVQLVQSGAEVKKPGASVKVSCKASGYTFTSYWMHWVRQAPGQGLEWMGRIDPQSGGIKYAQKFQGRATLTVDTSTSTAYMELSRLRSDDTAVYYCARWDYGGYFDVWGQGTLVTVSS VL: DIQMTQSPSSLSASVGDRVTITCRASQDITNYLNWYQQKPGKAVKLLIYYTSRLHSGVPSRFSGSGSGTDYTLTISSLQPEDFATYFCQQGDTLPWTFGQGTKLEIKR | 6.99
64BLH (Fab, V domains shown, also called 16BLM Fab) VH: EVQLVQSGAEVKKPGASVKVSCKASGYTFTSYDMHWVRQAPGQGLEWMGRIDPQSGGIKYAQKFQGRATLTVDTSTSTAYMELSRLRSDDTAVYYCARWDYGGYFDVWGQGTLVTVSS VL: DIQMTQSPSSLSASVGDRVTITCRASQDIYNYLNWYQQKPGKAVKLLIYYTSVLETGVPSRFSGSGSGTDYTLTISSLQPEDFATYFCQQGDTLPWTFGQGTKLEIK | 10.62

The reported pKd of the binder 60BLH (Fab, V domains shown, also called 12BLM Fab) VH: EVQLVQSGAEVKKPGASVKVSCKASGYTFTSYDMHWVRQAPGQGLEWMGRIDPQSGGVKYAQKFQGRATLTVDTSTSTAYMELSRLRSDDTAVYYCARWDYGGYFDVWGQGTLVTVSS VL: DIQMTQSPSSLSASVGDRVTITCRASQDIYNYLNWYQQKPGKAVKLLIYYTSVLETGVPSRFSGSGSGTDYTLTISSLQPEDFATYFCQQGDELPWTFGQGTKLEIK was 10.17

Source: patent US20230272056A1
